Would you mind telling me the reported melting point of each entry?

Fill blank: measured melting point of the compound CC(Sc1ccc(OC(C)(C)C(=O)O)cc1)c1cccc2c1cnn2-c1ccc(C(F)(F)F)cc1 (racemic) is ____. 85 to 90 °C

Fill blank: measured melting point of the compound O=C(N[C@@H]1CN2CCC1CC2)c1cccc2c1cc1n2CCCC1 is ____. 163 to 164 °C

Fill blank: measured melting point of the compound CCCCc1nc2ccc(N(C)C(=O)NC)cc2n1Cc1ccc(-c2ccccc2C(=O)O)cc1 is ____. 163 to 165 °C

* * *

quantityMeasured: melting point (°C)
Respond with the bare value in °C.

Fill blank: measured melting point of the compound CCOC(=O)C1=C(N)OC(C)=C(C(=O)OC)C1c1cc([N+](=O)[O-])ccc1Cl (stereo not given) is ____. 159

Fill blank: measured melting point of the compound COC(=O)C(Cc1cccc(-c2nc(=O)c3ccccc3s2)c1)NC(=O)c1ccccc1 (stereo not given) is ____. 131
